B1: Hairpin Ribozyme (parent)
chain: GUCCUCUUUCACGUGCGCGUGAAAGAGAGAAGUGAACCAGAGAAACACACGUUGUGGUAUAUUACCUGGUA

- Variants of: B1
- assayExplanation: self-cleavage, relative activity (ratio to wild type); higher = more cleavage; co-transcriptional
Task for the reader: assign each of the following variants its reported self-cleavage.
Number, no unit, nothing else.

Q) Consider the variant G13U G54U . State its measured self-cleavage.
A) 0.588

Q) Consider the variant G15C C50G . State its measured self-cleavage.
A) 0.184

Q) Consider the variant C16U A59U . State its measured self-cleavage.
A) 0.173

Q) Consider the variant A49U U67A . State its measured self-cleavage.
A) 0.0529

Q) Consider the variant U53G G69U . State its measured self-cleavage.
A) 0.279

Q) Consider the variant C38U C65A . State its measured self-cleavage.
A) 0.453

Q) Consider the variant G15U G34A . State its measured self-cleavage.
A) 1.33

Q) Consider the variant A31U G56U . State its measured self-cleavage.
A) 0.187

Q) Consider the variant G15C G68A . State its measured self-cleavage.
A) 0.324

Q) Consider the variant A11C A23U . State its measured self-cleavage.
A) 0.6

Q) Consider the variant U5C A31G . State its measured self-cleavage.
A) 0.391

Q) Consider the variant A39G U55G . State its measured self-cleavage.
A) 0.12

Q) Consider the variant C3G A49C . State its measured self-cleavage.
A) 0.0939

Q) Consider the variant G51A C65G . State its measured self-cleavage.
A) 0.287

Q) Consider the variant U14C G29U . State its measured self-cleavage.
A) 0.198

Q) Consider the variant A43G U60A . State its measured self-cleavage.
A) 0.202

Q) Consider the variant U9C A45U . State its measured self-cleavage.
A) 0.0912

Q) Consider the variant U20C U67G . State its measured self-cleavage.
A) 0.336

Q) Consider the variant C6A U33A . State its measured self-cleavage.
A) 0.129

Q) Consider the variant C10G A47U . State its measured self-cleavage.
A) 0.175

Q) Consider the variant U52G U53G . State its measured self-cleavage.
A) 1.39

Q) Consider the variant G13U G68C . State its measured self-cleavage.
A) 0.19

Q) Consider the variant G51C C66U . State its measured self-cleavage.
A) 0.452

Q) Consider the variant A43G U58C . State its measured self-cleavage.
A) 0.12

Q) Consider the variant A30C C37G . State its measured self-cleavage.
A) 0.277

Q) Consider the variant C37U G69U . State its measured self-cleavage.
A) 0.438

Q) Consider the variant G25U U52G . State its measured self-cleavage.
A) 0.696

Q) Consider the variant C3A G15A . State its measured self-cleavage.
A) 0.524

Q) Consider the variant `C16G` . State its measured self-cleavage.
A) 0.774

Q) Consider the variant G13A C50A . State its measured self-cleavage.
A) 0.284

Q) Consider the variant A24U G69A . State its measured self-cleavage.
A) 0.327

Q) Consider the variant U7G C18A . State its measured self-cleavage.
A) 1.01

Q) Consider the variant A30C U67G . State its measured self-cleavage.
A) 0.109

Q) Consider the variant G1U G56C . State its measured self-cleavage.
A) 0.229

Q) Consider the variant G32A A39G . State its measured self-cleavage.
A) 0.107

Q) Consider the variant C38A C65G . State its measured self-cleavage.
A) 0.104

Q) Consider the variant U55C A64G . State its measured self-cleavage.
A) 0.132

Q) Consider the variant G1A U20G . State its measured self-cleavage.
A) 0.188

Q) Consider the variant U14A G29A . State its measured self-cleavage.
A) 0.227

Q) Consider the variant G40A U67C . State its measured self-cleavage.
A) 0.121

Q) Consider the variant G40C G69U . State its measured self-cleavage.
A) 0.128

Q) Consider the variant G13C U58A . State its measured self-cleavage.
A) 0.35

Q) Consider the variant A36U A59C . State its measured self-cleavage.
A) 0.228

Q) Consider the variant A11G U20G . State its measured self-cleavage.
A) 0.982

Q) Consider the variant C16U C66G . State its measured self-cleavage.
A) 0.228

Q) Consider the variant G40C U58A . State its measured self-cleavage.
A) 0.16
